tested on: TK-10 renal; assay: NCI-60 one-dose screen, 48 h (100 = growth as untreated, 0 = no growth, -100 = all killed); settings: 10 µM unless noted
This is part of a sample that, as a whole, favours compounds with a hit. Of some 83,000 tested, about 20% had one in any assay.
We begin with a simple list: items and their reported growth.
Kindly answer with a numeric value in %, unit omitted.

Look over these answered cases.
[[record]]
compound = "Cc1cc2nc3cc(C)c(N)cc3[n+](-c3ccccc3)c2cc1N"
unit_text = "%"
obs_value = 93.8

[[record]]
compound = "CCCCn1c(-c2ccc(C(=O)O/N=C(\\N)c3ccc(OC)cc3)cc2)nc(-c2ccccc2)c1-c1ccccc1"
unit_text = "%"
obs_value = -78.8

[[record]]
compound = "CC(=O)O.CN1[CH-]N(Cc2ccc(C#N)cc2)c2ccccc21.[Ag+]"
unit_text = "%"
obs_value = 103


Q: Requested read-out growth, target or system TK-10 renal, entry CCc1ccc(Oc2c(-c3ccc(OCCc4cccc(C(F)(F)F)c4)cc3O)n[nH]c2C(F)(F)F)cc1
A: 58.4

Q: For TK-10 renal, provide growth of C/C(=N/NC(N)=S)c1sc(Nc2cccc(Cl)c2)nc1C please.
A: 86.7

Q: Identify the measured growth of COc1ccc(-c2nc3sc(-c4ccccc4)cn3n2)cc1 for TK-10 renal.
A: 106

Q: What reported growth corresponds to O=c1c2cccc(F)c2sc2c(NCCCNCCO)nc3ccccc3c12 on TK-10 renal?
A: 48.6

Q: Query growth on TK-10 renal for O=C1CCC/C=C\C[C@H]2C=CC(=O)/C2=C/C[C@H](CCc2cccc(C(F)(F)F)c2)O1
A: -68.9

Q: # returns recorded growth (system: TK-10 renal) for COc1ccc2sc3c(NCCCN(C)C)nc4ccccc4c3c(=O)c2c1
A: 78

Q: Give recorded growth with TK-10 renal for the following compound: CC([C@H]1CCC2C3CCC4C[C@@H](NC=O)CC[C@]4(C)C3CC[C@@]21C)N(C)C (some centres not stated)
A: 49.1

====

test system: OVCAR-4 ovarian; assay: NCI-60 one-dose screen, 48 h (100 = growth as untreated, 0 = no growth, -100 = all killed); settings: 10 µM unless noted
About 83,000 compounds went through this panel and 20% of them were active in at least one assay; those are over-represented in the sample as a whole.
Threshold 60%. growth below it: criterion met. growth at it or above: criterion not met.

# example entries with known answers
[[record]]
molecule = "Cc1nn(-c2ccccc2)c(-n2ccnc2)c1/C=N/Nc1nc(-c2ccc(Cl)c(Cl)c2)cs1"
discrete_label = "criterion met"

[[record]]
molecule = "Nc1nn(C(=O)Nc2ccc(Cc3ccccc3)cc2)c2ccc(Cl)cc12"
discrete_label = "criterion met"

[[record]]
molecule = "O=C(Nc1ccc(-c2nc(-c3cccc(OCCN4CCOCC4)c3)c(-c3ccnc(Br)c3)[nH]2)cc1)c1ccccc1"
discrete_label = "criterion met"

[[record]]
molecule = "CNCCCC12CCC(c3ccccc31)c1ccccc12"
discrete_label = "criterion not met"

[[record]]
molecule = "O=c1c2cc(F)ccc2sc2c(NCCCNCCO)nc3ccccc3c12"
discrete_label = "criterion met"

[[record]]
molecule = "CC[C@H](C)C(=O)O[C@H]1CCC=C2C=C[C@H](C)[C@H](CC[C@@H]3CC=CC(=O)O3)[C@H]21"
discrete_label = "criterion not met"


Q: Please state whether growth is below 60% for Cc1ccc(C(C)C)cc1C(=O)C[n+]1ccccc1
A: criterion not met

Q: Confirm or reject: growth of C=C1C(=O)O[C@H]2[C@H]1CC/C(COC(=O)CCSSCCC(=O)OC/C1=C/CC[C@@]3(C)O[C@H]3[C@H]3OC(=O)C(=C)[C@@H]3CC1)=C\CC[C@@]1(C)O[C@@H]21 lies strictly below 60%
A: criterion met

Q: growth strictly < 60% for this molecule? COC(=O)[C@H](C)NC(=O)NC(=O)NC(=O)CI
A: criterion not met

Q: # strict comparison: is reported growth < 60%? input = C[C@H]1[C@H]2[C@H]3CC[C@@H]4[C@@]5(C)CC[C@H](O)C(C)(C)[C@@H]5CC[C@@]4(C)[C@]3(C)CC[C@]23CO[C@]1(C)[C@@H](C(=O)/C=C\c1cccnc1)C3
A: criterion met

Q: Say whether its growth is strictly beneath 60%. Entry: O=C(Nc1ccc(Br)cc1F)c1cc(Br)ccc1O
A: criterion met

Q: For this molecule, is growth lower than 60%? Cc1nc(/N=C(\N)NC(=O)Nc2ccccc2Cl)sc1C
A: criterion met

====

// growth lookup, one value per entry
system: SF-268 CNS; experiment: NCI-60 one-dose screen, 48 h (100 = growth as untreated, 0 = no growth, -100 = all killed); settings: 10 µM unless noted
This is part of a sample that, as a whole, favours compounds with a hit. Of some 83,000 tested, about 20% had one in any assay.
Give the value in % but do not write % after it.

[[record]]
smiles_entry = "CCCCCCNC(=O)Oc1ccc(/C(=C(\\C)c2ccc(Cl)cc2)c2ccc(OCCCN(C)C)cc2)cc1"
obs_value = 77


Q: What does the data say about its growth? Entry: Clc1ccc(C(/C=C/c2sc(Cl)nc2Cl)=N/Nc2cc(Cl)cc(Cl)c2)cc1
A: 99.4

Q: Item O=C(Nc1ccc(I)cc1F)c1cc(I)ccc1O has what recorded growth?
A: 13.6

Q: # get_value(readout='growth', item= CCc1ccc(Oc2c(-c3ccc(OCc4ccc(Cl)cc4)cc3O)n[nH]c2C(F)(F)F)cc1 )
A: 30

Q: Would you mind telling me what growth value was observed for c1cc(NCCc2ccncc2)nc(-n2cnc3ccccc32)c1 ?
A: 82.3

Q: Return reported growth; argument: c1ccc(Nc2cc(-c3cccnc3)[nH]n2)cc1
A: 85.8

Q: Fill in the blank: the reported growth of O=C(COc1ccc(/C=C2\Cc3ccc(Cl)cc3C2=O)cc1)Nc1nc2ccccc2s1 is ____.
A: 112

====

system: SK-MEL-28 melanoma; assay: NCI-60 one-dose screen, 48 h (100 = growth as untreated, 0 = no growth, -100 = all killed); conditions: 10 µM unless noted
About 83,000 compounds went through this panel and 20% of them were active in at least one assay; those are over-represented in the sample as a whole.
Record fulfilled whenever growth is at 70% or higher; record not fulfilled when lower.

[[record]]
smiles_entry = "CCCCCCn1c(-c2ccc(C(=O)O/N=C(\\N)c3ccc4ccccc4c3)cc2)nc(-c2ccccc2)c1-c1ccccc1"
discrete_label = "fulfilled"

[[record]]
smiles_entry = "CCc1ccc(Oc2c(-c3ccc(OCc4ccc(Cl)cc4)cc3O)nn(C)c2C(F)(F)F)cc1"
discrete_label = "not fulfilled"

[[record]]
smiles_entry = "Cc1c(C(=O)N[C@@H](Cc2ccccc2)C(=O)C(=O)NCc2ccc(F)cc2)[nH]c2ccccc2c1=O"
discrete_label = "fulfilled"


Q: Quick check: does O=C1NC(=O)C(c2ccccc2)(c2ccccc2)N1Cc1cn(-c2c3ccccc3nc3ccccc23)nn1 have growth greater than or equal to 70%?
A: fulfilled

====

tested on: A498 renal; test: NCI-60 one-dose screen, 48 h; settings: 10 µM unless noted
Compounds without any hit were thinned out: in the full panel of roughly 83,000, 20% have a hit. Activity calls are given as the source filed them. How the source made its calls: active means growth percent below 10; inactive means the rest.
Reply using exactly one outcome from yes (1) = active, no (0) = inactive

[[record]]
compound = "O=C(Nc1ccc(Br)cc1F)c1cc(Br)ccc1O"
study_system = "A498 renal"
discrete_label = "yes (1)"

[[record]]
compound = "O=S(=O)(NCCCNc1cc(-c2c(-c3cccc(O)c3)nc3sccn23)ccn1)c1cccc2ccccc12"
study_system = "A498 renal"
discrete_label = "no (0)"

[[record]]
compound = "Cc1ccc(C(=O)NCCNc2nccc(-c3c(-c4cccc(F)c4)nc4sccn34)n2)cc1"
study_system = "A498 renal"
discrete_label = "no (0)"

[[record]]
compound = "CCCCCCCCCCCCCCCCCCOc1ccccc1CC(=O)OCC[N+](CC)(CC)CC"
study_system = "A498 renal"
discrete_label = "no (0)"


Q: How was O=C(Nc1c2ccccc2nc2ccccc12)c1ccccc1CN1C(=O)c2ccccc2C1=O classified in this test?
A: yes (1)

Q: Outcome? COc1ccc2c(c1)c(-c1nn3cc(-c4cccs4)nc3s1)cn2C
A: no (0)

Q: Call for entry CN1C(=C2C(=O)OC(C)(C)OC2=O)CCC1C(=O)NCc1ccc(Cl)cc1Cl (centres undefined) :
A: no (0)

Q: # lookup: test call for C=C1CC[C@H](C(C)C)[C@@H]2[C@H]1[C@H]1CC(=C)[C@@H](O)CC[C@@](C)(O)[C@@H]2O1
A: no (0)

====

test system: K-562 leukemia; assay: NCI-60 one-dose screen, 48 h (100 = growth as untreated, 0 = no growth, -100 = all killed); conditions: 10 µM unless noted
About 83,000 compounds went through this panel and 20% of them were active in at least one assay; those are over-represented in the sample as a whole.
Parameter growth: see the listing below.
Hi! Could you send only the number? It should be in %, unit omitted.

Some compounds with known growth results, for comparison:
[[record]]
compound = "C[N+]1=C(/C=C/c2ccc(O)c3ncccc23)C(C)(C)c2ccccc21"
unit_text = "%"
obs_value = 16.5

[[record]]
compound = "CC(C)(C)NC(=O)C(OC(=O)c1cccc(Cl)c1)c1ccc(Cl)cc1 (stereo not given)"
unit_text = "%"
obs_value = 92.5

[[record]]
compound = "C=C1C(=O)O[C@H]2[C@H]1CC/C(COC(=O)C(C)c1ccc(CC(C)C)cc1)=C\\CC[C@@]1(C)O[C@@H]21 (stereo not given in full)"
unit_text = "%"
obs_value = -4.97

[[record]]
compound = "CNCCCC12CCC(c3ccccc31)c1ccccc12"
unit_text = "%"
obs_value = 80.6

[[record]]
compound = "CCCCC1CCCC12NC(=O)NC2=O (stereo not given)"
unit_text = "%"
obs_value = 127


Q: Report growth for C=C1C(=O)O[C@H]2[C@H]1CC/C(COC(=O)CCSSCCC(=O)OC/C1=C/CC[C@@]3(C)O[C@H]3[C@H]3OC(=O)C(=C)[C@@H]3CC1)=C\CC[C@@]1(C)O[C@@H]21 please.
A: -1.59

Q: Which value of growth has been reported for Cc1ccc(S(=O)(=O)Oc2ccc(NC(=O)c3ccc(Cl)cc3)cc2)cc1 in the records?
A: 92.8
